The reported numbers originate from paper PMC8344263.

# Study Target: hCA I (Homo sapiens, UniProt P00915)
# Sequence (P00915 whole entry): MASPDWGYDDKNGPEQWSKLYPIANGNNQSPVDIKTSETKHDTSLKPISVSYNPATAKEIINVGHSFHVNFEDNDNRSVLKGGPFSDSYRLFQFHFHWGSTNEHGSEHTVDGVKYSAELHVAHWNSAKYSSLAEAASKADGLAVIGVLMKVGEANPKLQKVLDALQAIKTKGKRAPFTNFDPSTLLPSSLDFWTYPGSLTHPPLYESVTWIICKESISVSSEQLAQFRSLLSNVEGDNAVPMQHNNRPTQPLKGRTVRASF
// reported Ki for each item listed
Endpoint Name: Ki

>  <Molecule>
O=C1CCCc2nc(Nc3ccc(S(=O)(=O)Nc4ccc([N+](=O)[O-])cc4)cc3)ncc21

>  <Study Target>
hCA I (Homo sapiens, UniProt P00915)

>  <Recorded Value>
> 100 µM

$$$$
>  <Molecule>
Cc1ccc(NS(=O)(=O)c2ccc(Nc3ncc4c(n3)CCCC4=O)cc2)cc1

>  <Study Target>
hCA I (Homo sapiens, UniProt P00915)

>  <Recorded Value>
> 100 µM

$$$$
>  <Molecule>
COc1ccc(NS(=O)(=O)c2ccc(Nc3ncc4c(n3)CC(c3ccccc3)CC4=O)cc2)cc1 (stereo not shown)

>  <Study Target>
hCA I (Homo sapiens, UniProt P00915)

>  <Recorded Value>
34 µM

$$$$
>  <Molecule>
O=C1CCCc2nc(Nc3ccc(S(=O)(=O)Nc4ccccc4)cc3)ncc21

>  <Study Target>
hCA I (Homo sapiens, UniProt P00915)

>  <Recorded Value>
89.1 µM

$$$$

====

// reported pKi for each item listed
# Study Target: hCA II (Homo sapiens)
pKi: −log10 of the molar value.

>  <Compound>
O=C1CC(c2ccccc2)Cc2nc(Nc3ccc(S(=O)(=O)Nc4ccccc4)cc3)ncc21 (centres unmarked)

>  <Study Target>
hCA II (Homo sapiens)

>  <Limit Sign>
<

>  <pKi>
4.00

$$$$
>  <Compound>
COc1ccc(NS(=O)(=O)c2ccc(Nc3ncc4c(n3)CC(c3ccccc3)CC4=O)cc2)cc1 (centres unmarked)

>  <Study Target>
hCA II (Homo sapiens)

>  <Limit Sign>
=

>  <pKi>
4.94

$$$$
>  <Compound>
O=C1CCCc2nc(Nc3ccc(S(=O)(=O)Nc4ccc([N+](=O)[O-])cc4)cc3)ncc21

>  <Study Target>
hCA II (Homo sapiens)

>  <Limit Sign>
<

>  <pKi>
4.00

$$$$
>  <Compound>
O=C1CC(c2ccccc2)Cc2nc(Nc3ccc(S(=O)(=O)Nc4ccc([N+](=O)[O-])cc4)cc3)ncc21 (centres unmarked)

>  <Study Target>
hCA II (Homo sapiens)

>  <Limit Sign>
=

>  <pKi>
4.17

$$$$
>  <Compound>
COc1ccc(NS(=O)(=O)c2ccc(Nc3ncc4c(n3)CC(C)(C)CC4=O)cc2)cc1

>  <Study Target>
hCA II (Homo sapiens)

>  <Limit Sign>
=

>  <pKi>
5.29

$$$$

====

# Study Target: hCA IV (Homo sapiens, UniProt P22748)
# Sequence (P22748 19-312): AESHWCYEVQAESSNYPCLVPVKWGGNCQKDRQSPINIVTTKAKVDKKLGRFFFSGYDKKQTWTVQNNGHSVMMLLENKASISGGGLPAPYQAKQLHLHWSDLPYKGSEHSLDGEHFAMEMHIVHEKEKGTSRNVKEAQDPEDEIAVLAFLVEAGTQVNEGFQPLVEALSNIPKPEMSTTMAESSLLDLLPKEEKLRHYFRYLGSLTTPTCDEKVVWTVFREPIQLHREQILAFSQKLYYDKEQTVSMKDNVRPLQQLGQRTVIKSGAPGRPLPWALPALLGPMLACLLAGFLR
# Assay Remarks: stopped-flow CO2 hydrase assay, hCA IV
pKi: −log10 of the molar value.
// reported pKi for each item listed

>  <Molecule>
COc1ccc(NS(=O)(=O)c2ccc(Nc3ncc4c(n3)CC(c3ccccc3)CC4=O)cc2)cc1 (stereo not shown)

>  <pKi>
< 4.00

$$$$
>  <Molecule>
Cc1ccc(NS(=O)(=O)c2ccc(Nc3ncc4c(n3)CC(C)(C)CC4=O)cc2)cc1

>  <pKi>
4.21

$$$$
>  <Molecule>
O=C1CC(c2ccccc2)Cc2nc(Nc3ccc(S(=O)(=O)Nc4ccccc4)cc3)ncc21 (stereo not shown)

>  <pKi>
< 4.00

$$$$
>  <Molecule>
COc1ccc(NS(=O)(=O)c2ccc(Nc3ncc4c(n3)CCCC4=O)cc2)cc1

>  <pKi>
< 4.00

$$$$

====

// reported melting point for each item listed

>  <Compound>
COc1ccc(NS(=O)(=O)c2ccc(Nc3ncc4c(n3)CC(c3ccccc3)CC4=O)cc2)cc1 (stereo not drawn)

>  <melting point>
103 to 105 °C

$$$$
>  <Compound>
NS(=O)(=O)c1ccc(Nc2ncc3c(n2)CCCC3=O)cc1 [Compound 16a]

>  <melting point>
294 to 296 °C

$$$$
>  <Compound>
O=C1CCCc2nc(Nc3ccc(S(=O)(=O)Nc4ccccc4)cc3)ncc21

>  <melting point>
281 to 283 °C

$$$$
>  <Compound>
CC1(C)CC(=O)c2cnc(Nc3ccc(S(=O)(=O)Nc4ccc([N+](=O)[O-])cc4)cc3)nc2C1

>  <melting point>
264 to 266 °C

$$$$
>  <Compound>
Cc1ccc(NS(=O)(=O)c2ccc(Nc3ncc4c(n3)CC(c3ccccc3)CC4=O)cc2)cc1 (stereo not drawn)

>  <melting point>
83 to 85 °C

$$$$
>  <Compound>
O=C1CCCc2nc(Nc3ccc(S(=O)(=O)Nc4ccc([N+](=O)[O-])cc4)cc3)ncc21

>  <melting point>
264 to 266 °C

$$$$
>  <Compound>
CC1(C)CC(=O)c2cnc(Nc3ccc(S(N)(=O)=O)cc3)nc2C1 [Compound 16c]

>  <melting point>
258 to 260 °C

$$$$
>  <Compound>
NS(=O)(=O)c1ccc(Nc2ncc3c(n2)CC(c2ccccc2)CC3=O)cc1 (stereo not drawn) [Compound 16b]

>  <melting point>
214 to 215 °C

$$$$
>  <Compound>
COc1ccc(NS(=O)(=O)c2ccc(Nc3ncc4c(n3)CCCC4=O)cc2)cc1

>  <melting point>
233 to 235 °C

$$$$
>  <Compound>
Cc1ccc(NS(=O)(=O)c2ccc(Nc3ncc4c(n3)CCCC4=O)cc2)cc1

>  <melting point>
272 to 274 °C

$$$$
>  <Compound>
CC1(C)CC(=O)c2cnc(Nc3ccc(S(=O)(=O)Nc4ccccc4)cc3)nc2C1

>  <melting point>
215 to 217 °C

$$$$
>  <Compound>
COc1ccc(NS(=O)(=O)c2ccc(Nc3ncc4c(n3)CC(C)(C)CC4=O)cc2)cc1

>  <melting point>
210 to 212 °C

$$$$
>  <Compound>
Cc1ccc(NS(=O)(=O)c2ccc(Nc3ncc4c(n3)CC(C)(C)CC4=O)cc2)cc1

>  <melting point>
246 to 248 °C

$$$$
>  <Compound>
O=C1CC(c2ccccc2)Cc2nc(Nc3ccc(S(=O)(=O)Nc4ccc([N+](=O)[O-])cc4)cc3)ncc21 (stereo not drawn)

>  <melting point>
118 to 120 °C

$$$$
>  <Compound>
O=C1CC(c2ccccc2)Cc2nc(Nc3ccc(S(=O)(=O)Nc4ccccc4)cc3)ncc21 (stereo not drawn)

>  <melting point>
111 to 113 °C

$$$$

====

Parameter 'readout' = pKi; parameter 'system' = hCA IX (Homo sapiens, UniProt Q16790).
pKi: −log10 of the molar value.
Endpoint Name: pKi

>  <Molecule>
O=C1CC(c2ccccc2)Cc2nc(Nc3ccc(S(=O)(=O)Nc4ccccc4)cc3)ncc21 (stereo not drawn)

>  <Study Target>
hCA IX (Homo sapiens, UniProt Q16790)

>  <Endpoint Name>
pKi

>  <Recorded Value>
6.35

$$$$
>  <Molecule>
Cc1ccc(NS(=O)(=O)c2ccc(Nc3ncc4c(n3)CC(c3ccccc3)CC4=O)cc2)cc1 (stereo not drawn)

>  <Study Target>
hCA IX (Homo sapiens, UniProt Q16790)

>  <Endpoint Name>
pKi

>  <Recorded Value>
4.80

$$$$
>  <Molecule>
O=C1CCCc2nc(Nc3ccc(S(=O)(=O)Nc4ccc([N+](=O)[O-])cc4)cc3)ncc21

>  <Study Target>
hCA IX (Homo sapiens, UniProt Q16790)

>  <Endpoint Name>
pKi

>  <Recorded Value>
6.38

$$$$

====

Parameter 'readout' = Ki; parameter 'system' = hCA IX (Homo sapiens, UniProt Q16790).

>  <Compound>
O=C1CCCc2nc(Nc3ccc(S(=O)(=O)Nc4ccccc4)cc3)ncc21

>  <Limit Sign>
=

>  <Ki / nM>
480

$$$$
>  <Compound>
COc1ccc(NS(=O)(=O)c2ccc(Nc3ncc4c(n3)CC(c3ccccc3)CC4=O)cc2)cc1 (stereo not shown)

>  <Limit Sign>
=

>  <Ki / nM>
1730

$$$$
>  <Compound>
CC1(C)CC(=O)c2cnc(Nc3ccc(S(=O)(=O)Nc4ccc([N+](=O)[O-])cc4)cc3)nc2C1

>  <Limit Sign>
>

>  <Ki / nM>
100000

$$$$
>  <Compound>
Cc1ccc(NS(=O)(=O)c2ccc(Nc3ncc4c(n3)CC(C)(C)CC4=O)cc2)cc1

>  <Limit Sign>
=

>  <Ki / nM>
19300

$$$$
